System: 171881-019-R-J1-PDC complex spheroid growth, % test/control
test_protocol: Anticancer human tumor 171881-019-R-J1-PDC patient-derived invasive breast carcinoma cell line growth inhibition [Asc]; active means viability on the fitted dose curve at most 10% of control; inactive means the rest
conditions_used: second compound 1 µM; first compound 0.316 µM
Mark one answer only. Choices: Yes for active, No for inactive

Asked: Query: recorded result category for O=C(c1cc(Cc2n[nH]c(=O)c3ccccc23)ccc1F)N1CCN(C(=O)C2CC2)CC1 + Cc1c(S(C)(=O)=O)c(-c2cc(F)cc(N3CCN(c4ccc(NS(=O)(=O)c5ccc(NC(CCN6CCC(C(=O)OCCCP(=O)(O)O)CC6)CSc6ccccc6)c(S(=O)(=O)C(F)(F)F)c5)cc4)CC3)c2)c(-c2ccc(Cl)cc2)n1C(C)C in this test
Given back: No

Asked: Now the same for C=CC(=O)N1CCN(c2nc(=O)n(-c3c(C)ccnc3C(C)C)c3nc(-c4c(O)cccc4F)c(F)cc23)C(C)C1 (stereo not drawn) + CNC(C)C(=O)NC1CN(S(=O)(=O)c2cccc(S(=O)(=O)N3CCC4CCC(C(=O)NC(c5ccccc5)c5ccccc5)N4C(=O)C(NC(=O)C(C)NC)C3)c2)CCC2CCC(C(=O)NC(c3ccccc3)c3ccccc3)N2C1=O
Given back: No

Asked: Now the same for COc1c(OCCCN2CCOCC2)ccc2c3n(c(=NC(=O)c4cnc(N)nc4)nc12)CCN3 + Cc1c(S(C)(=O)=O)c(-c2cc(F)cc(N3CCN(c4ccc(NS(=O)(=O)c5ccc(NC(CCN6CCC(C(=O)OCCCP(=O)(O)O)CC6)CSc6ccccc6)c(S(=O)(=O)C(F)(F)F)c5)cc4)CC3)c2)c(-c2ccc(Cl)cc2)n1C(C)C
Given back: Yes

###

Test system: 171881-019-R-J1-PDC complex spheroid growth, % test/control
test_protocol: Anticancer human tumor 171881-019-R-J1-PDC cell line growth inhibition [Asc]; active means viability on the fitted dose curve at most 10% of control; inactive means the rest;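 further: spheroids exposed to compounds for 7 days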
conditions_used: second compound 10 µM; first compound 0.1 µM
Mark one answer only. Choices: true (1) = active, false (0) = inactive

Asked: Query: recorded result category for COc1c(OCCCN2CCOCC2)ccc2c3n(c(=NC(=O)c4cnc(N)nc4)nc12)CCN3 + Cc1c(S(C)(=O)=O)c(-c2cc(F)cc(N3CCN(c4ccc(NS(=O)(=O)c5ccc(NC(CCN6CCC(C(=O)OCCCP(=O)(O)O)CC6)CSc6ccccc6)c(S(=O)(=O)C(F)(F)F)c5)cc4)CC3)c2)c(-c2ccc(Cl)cc2)n1C(C)C in this test
Given back: true (1)

Asked: Now the same for CNC(C)C(=O)NC1CN(S(=O)(=O)c2cccc(S(=O)(=O)N3CCC4CCC(C(=O)NC(c5ccccc5)c5ccccc5)N4C(=O)C(NC(=O)C(C)NC)C3)c2)CCC2CCC(C(=O)NC(c3ccccc3)c3ccccc3)N2C1=O (configuration not stated) + Cc1c(S(C)(=O)=O)c(-c2cc(F)cc(N3CCN(c4ccc(NS(=O)(=O)c5ccc(NC(CCN6CCC(C(=O)OCCCP(=O)(O)O)CC6)CSc6ccccc6)c(S(=O)(=O)C(F)(F)F)c5)cc4)CC3)c2)c(-c2ccc(Cl)cc2)n1C(C)C
Given back: false (0)

Asked: Now the same for C=CC(=O)N1CCN(c2nc(=O)n(-c3c(C)ccnc3C(C)C)c3nc(-c4c(O)cccc4F)c(F)cc23)C(C)C1 (configuration not stated) + Cc1c(S(C)(=O)=O)c(-c2cc(F)cc(N3CCN(c4ccc(NS(=O)(=O)c5ccc(NC(CCN6CCC(C(=O)OCCCP(=O)(O)O)CC6)CSc6ccccc6)c(S(=O)(=O)C(F)(F)F)c5)cc4)CC3)c2)c(-c2ccc(Cl)cc2)n1C(C)C
Given back: false (0)

Asked: Now the same for O=C(c1cc(Cc2n[nH]c(=O)c3ccccc23)ccc1F)N1CCN(C(=O)C2CC2)CC1 + Cc1c(S(C)(=O)=O)c(-c2cc(F)cc(N3CCN(c4ccc(NS(=O)(=O)c5ccc(NC(CCN6CCC(C(=O)OCCCP(=O)(O)O)CC6)CSc6ccccc6)c(S(=O)(=O)C(F)(F)F)c5)cc4)CC3)c2)c(-c2ccc(Cl)cc2)n1C(C)C
Given back: false (0)

Asked: Now the same for C=C(F)C(=O)N1CCN(c2nc(OCC3CCCN3C)nc3c2CCN(c2cccc4cccc(Cl)c24)C3)CC1CC#N (configuration not stated) + Cc1c(S(C)(=O)=O)c(-c2cc(F)cc(N3CCN(c4ccc(NS(=O)(=O)c5ccc(NC(CCN6CCC(C(=O)OCCCP(=O)(O)O)CC6)CSc6ccccc6)c(S(=O)(=O)C(F)(F)F)c5)cc4)CC3)c2)c(-c2ccc(Cl)cc2)n1C(C)C
Given back: false (0)

Asked: Now the same for C#Cc1c(F)ccc2cc(O)cc(-c3ncc4c(N5CC6CCC(C5)N6)nc(OCC56CCCN5CC(F)C6)nc4c3F)c12 (configuration not stated) + Cc1c(S(C)(=O)=O)c(-c2cc(F)cc(N3CCN(c4ccc(NS(=O)(=O)c5ccc(NC(CCN6CCC(C(=O)OCCCP(=O)(O)O)CC6)CSc6ccccc6)c(S(=O)(=O)C(F)(F)F)c5)cc4)CC3)c2)c(-c2ccc(Cl)cc2)n1C(C)C
Given back: false (0)

Asked: Now the same for CCN1CCN(Cc2ccc(Nc3ncc(F)c(-c4cc(F)c5nc(C)n(C(C)C)c5c4)n3)nc2)CC1 + Cc1c(S(C)(=O)=O)c(-c2cc(F)cc(N3CCN(c4ccc(NS(=O)(=O)c5ccc(NC(CCN6CCC(C(=O)OCCCP(=O)(O)O)CC6)CSc6ccccc6)c(S(=O)(=O)C(F)(F)F)c5)cc4)CC3)c2)c(-c2ccc(Cl)cc2)n1C(C)C
Given back: false (0)
